- tested target: Androgen Receptor/SRC-1 Co-activator, AR (gene 367) (UniProt P10275)
- Sequence (P10275 whole entry, looked up): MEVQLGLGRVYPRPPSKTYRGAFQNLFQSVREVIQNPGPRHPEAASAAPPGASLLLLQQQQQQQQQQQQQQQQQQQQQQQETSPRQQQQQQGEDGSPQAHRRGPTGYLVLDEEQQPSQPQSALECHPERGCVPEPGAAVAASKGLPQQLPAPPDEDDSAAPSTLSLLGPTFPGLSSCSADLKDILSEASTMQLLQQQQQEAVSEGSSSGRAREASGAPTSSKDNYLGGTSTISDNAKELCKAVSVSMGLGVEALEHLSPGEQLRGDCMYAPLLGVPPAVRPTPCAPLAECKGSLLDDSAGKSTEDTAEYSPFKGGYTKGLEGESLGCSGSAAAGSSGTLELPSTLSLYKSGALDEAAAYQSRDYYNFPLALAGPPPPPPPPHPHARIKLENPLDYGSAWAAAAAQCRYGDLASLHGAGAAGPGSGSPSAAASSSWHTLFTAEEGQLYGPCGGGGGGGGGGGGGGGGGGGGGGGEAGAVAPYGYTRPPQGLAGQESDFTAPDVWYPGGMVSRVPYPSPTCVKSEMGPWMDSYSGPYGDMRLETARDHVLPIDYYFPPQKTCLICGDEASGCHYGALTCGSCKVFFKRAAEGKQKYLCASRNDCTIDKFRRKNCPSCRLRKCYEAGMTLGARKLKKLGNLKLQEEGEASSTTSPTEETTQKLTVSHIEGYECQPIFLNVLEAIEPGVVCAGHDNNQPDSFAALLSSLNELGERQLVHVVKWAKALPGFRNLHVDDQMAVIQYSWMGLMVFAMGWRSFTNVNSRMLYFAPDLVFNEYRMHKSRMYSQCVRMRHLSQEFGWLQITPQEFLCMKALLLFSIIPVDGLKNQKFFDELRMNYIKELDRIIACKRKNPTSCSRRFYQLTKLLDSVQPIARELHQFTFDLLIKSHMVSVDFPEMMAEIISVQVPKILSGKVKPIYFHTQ
- test method notes: OT_AR_ARSRC1_0960: Odyssey Thera (OT) 16-hour HEK293T Protein-Complementation Assay for Androgen Receptor/SRC-1 Co-activator (AID 2283353);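 further: actives raise the signal above DMSO so potency reflects increased AR and SRC-1 complex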
Activity calls are given as the source filed them. How the source made its calls: active means hit-call score of the fitted dose curve at least 0.9, where 1 is the maximum; inconclusive means response in the unintended direction; inactive means score below 0.9.
Please state which outcome applies, choosing from active, inactive

Dear colleague, could you share the recorded outcome for `c1ccc2[nH]ccc2c1` when you have a moment? inactive

Dear colleague, could you share the recorded outcome for `CCN(CC)c1ccc(C(=C2C=CC(=[N+](CC)CC)C=C2)c2ccc(S(=O)(=O)O)cc2S(=O)(=O)[O-])cc1` when you have a moment? inactive

Dear colleague, could you share the recorded outcome for BrC1CCC(Br)C(Br)CCC(Br)C(Br)CCC1Br (stereo unspecified) when you have a moment? active

Dear colleague, could you share the recorded outcome for CCCCC(CC)COC(=O)/C=C\C(=O)OCC(CC)CCCC (stereo unspecified) when you have a moment? active

Dear colleague, could you share the recorded outcome for `COc1ccc(O)cc1` when you have a moment? inactive

Dear colleague, could you share the recorded outcome for `CCCCCCCCCCCCCOS(=O)(=O)O` when you have a moment? inactive

* * *

- Read-out: Monokine induced gamma interferon (MIG), CXCL9 (gene 4283)
- test method notes: BSK_3C_MIG: BioMAP Diversity Plus: 3C Assay for Monokine induced gamma interferon (MIG) Biomarker Activity (AID 2283021);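 on AC50: MIG protein level measured by immunoassay in the treated endothelial cultures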
- measurement context: primary human endothelial cells (HUVEC); actives raise or lower the signal
- Method: BSK_3C is a cell-based, multiplexed-readout assay that uses umbilical vein endothelium, a human vascular primary cell, with measurements taken at 24 hours after chemical dosing in a 96-well plate.BSK_3C_MIG is an assay component measured in the BSK_3C assay. It measures MIG antibody related to regulation of gene expression using ELISA technology.Data from the assay component BSK_3C_MIG was analyzed into 1 assay endpoint. […]
Calls of active or inactive are those of the source. How the source made its calls: active means hit-call score of the fitted dose curve at least 0.9, where 1 is the maximum; inactive means score below 0.9.
endpoint name: AC50

Please review the entries below; each comes with its answer.
I am curious: what AC50 value has been reported for `O=C(O)C[C@H](O)C[C@H](O)/C=C/c1c(C2CC2)nc2ccccc2c1-c1ccc(F)cc1` ? inactive

I am curious: what AC50 value has been reported for `CCCCC/C=C/C=C/C=O` ? 36.5 µM (active)

I am curious: what AC50 value has been reported for `C#C[C@]1(O)CC[C@H]2[C@@H]3CCC4=Cc5oncc5C[C@]4(C)[C@H]3CC[C@@]21C` ? inactive

I am curious: what AC50 value has been reported for `Cc1cc(C2(c3cc(C)c(O)cc3C)OS(=O)(=O)c3ccccc32)c(C)cc1O` ? inactive

// below: AC50 requested for another compound
I am curious: what AC50 value has been reported for `Cc1ccc(Nc2ccc(O)c3c2C(=O)c2ccccc2C3=O)cc1` ? inactive

* * *

- Read-out: E-selectin (Homo sapiens)
- test method notes: BSK_3C_Eselectin: BioMAP Diversity Plus: 3C Assay for Eselectin Biomarker Activity (AID 2283015);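 on outcome: cell surface E-selectin protein quantified by ELISA 24 h after dosing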
- measurement context: primary human endothelial cells (HUVEC); actives raise or lower the signal
Calls of active or inactive are those of the source. Rule for the calls: active = hit-call score of the fitted dose curve at least 0.9, where 1 is the maximum; inactive = score below 0.9.
Please state which outcome applies, choosing from 1 for active, 0 for inactive

Dear colleague, could you share the recorded outcome for CCCCCCCCCCCCCCCCCC(=O)OCC(CC)CCCC (stereo unspecified) when you have a moment? 0

Dear colleague, could you share the recorded outcome for `C=C(C)C(=O)O[C@H]1C[C@@H]2CC[C@@]1(C)C2(C)C` when you have a moment? 1

Dear colleague, could you share the recorded outcome for `O=[N+]([O-])c1cc(C(F)(F)F)ccc1Cl` when you have a moment? 0

Dear colleague, could you share the recorded outcome for O=C=NC1CCC(CC2CCC(N=C=O)CC2)CC1 (stereo unspecified) when you have a moment? 0

Dear colleague, could you share the recorded outcome for `c1ccc2sc(SN(C3CCCCC3)C3CCCCC3)nc2c1` when you have a moment? 1

Dear colleague, could you share the recorded outcome for `Cc1ccc2n[nH]nc2c1` when you have a moment? 0

Dear colleague, could you share the recorded outcome for `c1ccc2c(c1)c1cccc3ccc4cccc2c4c31` when you have a moment? 0

Dear colleague, could you share the recorded outcome for `COC(=O)c1ccc(C)cc1` when you have a moment? 0

Dear colleague, could you share the recorded outcome for `CCCCCCCCCC=O` when you have a moment? 0

Dear colleague, could you share the recorded outcome for CC(=O)OCCC(C)CC(C)(C)C (stereo unspecified) when you have a moment? 0

Dear colleague, could you share the recorded outcome for `O=C(O)c1ccc([N+](=O)[O-])cc1` when you have a moment? 0

Dear colleague, could you share the recorded outcome for `CC(=O)/C=C/C1=C(C)CCCC1(C)C` when you have a moment? 0

Dear colleague, could you share the recorded outcome for `CCCCC/C=C/C=C/C=O` when you have a moment? 1

Dear colleague, could you share the recorded outcome for CC1COc2ccccc2N1C(=O)C(Cl)Cl (stereo unspecified) when you have a moment? 1

Dear colleague, could you share the recorded outcome for `O=C1OC2(c3cc(Br)c(O)c(Br)c3Oc3c2cc(Br)c(O)c3Br)c2c(Cl)c(Cl)c(Cl)c(Cl)c21` when you have a moment? 1

Dear colleague, could you share the recorded outcome for `Cc1ccc(O)c(C(C)(C)C)c1` when you have a moment? 1

Dear colleague, could you share the recorded outcome for `CC(C)Oc1ccccc1O` when you have a moment? 0

Dear colleague, could you share the recorded outcome for `CCC(=O)OCc1ccccc1` when you have a moment? 0

Dear colleague, could you share the recorded outcome for `C=CCOC(=O)CCC1CCCCC1` when you have a moment? 0

Dear colleague, could you share the recorded outcome for `CC(C)(COC(=O)c1ccccc1)COC(=O)c1ccccc1` when you have a moment? 1

Dear colleague, could you share the recorded outcome for `N#Cc1ccc(CC(=NNC(=O)Nc2ccc(OC(F)(F)F)cc2)c2cccc(C(F)(F)F)c2)cc1` when you have a moment? 0

Dear colleague, could you share the recorded outcome for `O=C(O)c1cn(-c2ccc(F)cc2)c2cc(N3CCNCC3)c(F)cc2c1=O` when you have a moment? 0

Dear colleague, could you share the recorded outcome for `OC[C@H]1O[C@H](O[C@]2(CCl)O[C@H](CCl)[C@@H](O)[C@@H]2O)[C@H](O)[C@@H](O)[C@H]1Cl` when you have a moment? 0

Dear colleague, could you share the recorded outcome for `CC(=O)Nc1ccccc1O` when you have a moment? 0

Dear colleague, could you share the recorded outcome for OC1OC[C@@H](O)[C@H](O)[C@H]1O (stereo partly specified) when you have a moment? 0

Dear colleague, could you share the recorded outcome for BrC1CCC(Br)C(Br)CCC(Br)C(Br)CCC1Br (stereo unspecified) when you have a moment? 0

* * *

- tested target: human Retinoid X Receptor beta (RXRb), RXRB (gene 6257) (UniProt P28702)
- Sequence (P28702 whole entry, looked up): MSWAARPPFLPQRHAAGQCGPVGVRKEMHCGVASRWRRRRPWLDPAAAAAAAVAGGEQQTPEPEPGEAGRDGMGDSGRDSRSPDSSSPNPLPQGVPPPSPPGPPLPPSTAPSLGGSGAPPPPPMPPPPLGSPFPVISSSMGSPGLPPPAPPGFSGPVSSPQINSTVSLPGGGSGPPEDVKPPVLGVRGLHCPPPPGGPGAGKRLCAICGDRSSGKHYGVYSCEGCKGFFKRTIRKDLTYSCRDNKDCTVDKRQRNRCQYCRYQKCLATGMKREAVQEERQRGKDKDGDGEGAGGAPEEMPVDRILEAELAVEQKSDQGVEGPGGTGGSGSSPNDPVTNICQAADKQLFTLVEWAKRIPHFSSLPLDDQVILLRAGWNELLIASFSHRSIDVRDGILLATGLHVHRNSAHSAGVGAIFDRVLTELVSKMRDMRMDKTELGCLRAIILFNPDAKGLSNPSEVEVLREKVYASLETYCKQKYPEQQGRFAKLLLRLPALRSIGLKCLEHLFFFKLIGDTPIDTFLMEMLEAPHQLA
- test method notes: ATG_RXRb_TRANS: Attagene TRANS-FACTORIAL HepG2 Assay for human Retinoid X Receptor beta (RXRb) (AID 2283013)
Inconclusive results are not listed. Activity calls are given as the source filed them. The calls were made as follows: active = hit-call score of the fitted dose curve at least 0.9, where 1 is the maximum; inconclusive = response in the unintended direction; inactive = score below 0.9.
endpoint name: AC50

Fill in the recorded AC50 for this molecule, with human Retinoid X Receptor beta (RXRb), RXRB (gene 6257) (UniProt P28702) as test system: `CCCCNC(=O)NS(=O)(=O)c1ccc(C)cc1` inactive

Fill in the recorded AC50 for this molecule, with human Retinoid X Receptor beta (RXRb), RXRB (gene 6257) (UniProt P28702) as test system: `Clc1cccc(Cl)n1` inactive

Fill in the recorded AC50 for this molecule, with human Retinoid X Receptor beta (RXRb), RXRB (gene 6257) (UniProt P28702) as test system: `COc1cc(C=O)ccc1OC(=O)C(C)C` inactive

Fill in the recorded AC50 for this molecule, with human Retinoid X Receptor beta (RXRb), RXRB (gene 6257) (UniProt P28702) as test system: `CC(C)=CCC[C@](C)(O)[C@@H]1CC=C(C)CC1` inactive

Fill in the recorded AC50 for this molecule, with human Retinoid X Receptor beta (RXRb), RXRB (gene 6257) (UniProt P28702) as test system: `CC[C@]12CCCN3CCc4c(n(c5ccccc45)[C@@](O)(C(=O)OC)C1)[C@@H]32` inactive

---
Fill in the recorded AC50 for this molecule, with human Retinoid X Receptor beta (RXRb), RXRB (gene 6257) (UniProt P28702) as test system: `CCCCCCCCCCCCOCCO` 33.4 µM (active)

Fill in the recorded AC50 for this molecule, with human Retinoid X Receptor beta (RXRb), RXRB (gene 6257) (UniProt P28702) as test system: `CC(C)=CCC[C@H](C)CC=O` inactive

Fill in the recorded AC50 for this molecule, with human Retinoid X Receptor beta (RXRb), RXRB (gene 6257) (UniProt P28702) as test system: `CSc1nc(NC2CC2)nc(NC(C)(C)C)n1` 22.7 µM (active)

Fill in the recorded AC50 for this molecule, with human Retinoid X Receptor beta (RXRb), RXRB (gene 6257) (UniProt P28702) as test system: CCCCC(CC)COCCC#N (centres undefined) 51.1 µM (active)

Fill in the recorded AC50 for this molecule, with human Retinoid X Receptor beta (RXRb), RXRB (gene 6257) (UniProt P28702) as test system: `CN(C)c1ccc(O)c2c1C[C@H]1C[C@H]3[C@H](N(C)C)C(=O)C(C(N)=O)=C(O)[C@@]3(O)C(=O)C1=C2O` inactive

Fill in the recorded AC50 for this molecule, with human Retinoid X Receptor beta (RXRb), RXRB (gene 6257) (UniProt P28702) as test system: `Cc1ccc2n[nH]nc2c1` inactive

Fill in the recorded AC50 for this molecule, with human Retinoid X Receptor beta (RXRb), RXRB (gene 6257) (UniProt P28702) as test system: `CCOC(=S)SSC(=S)OCC` inactive

Fill in the recorded AC50 for this molecule, with human Retinoid X Receptor beta (RXRb), RXRB (gene 6257) (UniProt P28702) as test system: NC(=O)NC1NC(=O)NC1=O (centres undefined) inactive

Fill in the recorded AC50 for this molecule, with human Retinoid X Receptor beta (RXRb), RXRB (gene 6257) (UniProt P28702) as test system: `CC(C)(C)NC(N)=O` inactive
